Each recorded value in this set is attributed to PubChem BioAssay AID1159580.

- assay summary: chemical genetic growth profiling, strain panel (AID 1159580);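 also: tested at 20 µM; growth read once vehicle control cultures reached saturation at 30 °C; 1 = growth at the plate median or of vehicle wells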
- reported conditions: S. cerevisiae deletion strains, growth OD, locus YNL183C, strain NPR1, stronger effect = lower value
Among all 5,500 compounds or so, about 2,000 (36%) were called active. Not shown: some 18% with an inconclusive outcome. The list shows a part of the results.
# Lookup of reported normalized growth keyed by entry

{"columns": ["compound", "observed measurement"],
 "data": [
  ["Cc1cc(C)c2cc(C(=O)NCCNc3ccc(C(F)(F)F)cn3)[nH]c2c1", "0.169 (active)"]
]}

Prompt: Looking for the measured normalized growth of COc1cc2c(cc1OC)C(C)NCC2 (configuration not stated) , can you help?
Completion: 0.974 (inactive)

Prompt: Which measured normalized growth value corresponds to Cn1cc(Br)c(-c2cccc(NS(=O)(=O)c3ccc(Cl)cc3)c2)n1 ?
Completion: 1.06 (inactive)

Prompt: Recorded normalized growth of NC(=NCCCCCCN=C(N)N=C(N)Nc1ccc(Cl)cc1)N=C(N)Nc1ccc(Cl)cc1 , please.
Completion: 0.139 (active)

Prompt: Dear colleague, I am looking for the recorded normalized growth of the following compound: CC(=O)OCC1=C(C(=O)O)N2C(=O)[C@@H](NC(=O)CSc3ccncc3)[C@H]2SC1
Completion: 0.924 (inactive)

Prompt: I am curious: what normalized growth value has been reported for NNC(=O)c1oc2nc(-c3ccccc3)cc(-c3ccccc3)c2c1N ?
Completion: 0.946 (inactive)

* * *

- assay summary: chemical genetic growth profiling, strain panel (AID 1159580)
- reported conditions: S. cerevisiae deletion strains, growth OD, locus YGL086W, strain mad1, stronger effect = lower value
Hit rate of the full screen: of about 5,500 compounds, about 2,000 (36%) were called active. About 18% were inconclusive and are not listed. The list shows a part of the results.
experimental endpoint: normalized growth
In your answer, state the number alone without any accompanying words.

Example entries begin here.
{"columns": ["compound", "normalized growth"],
 "data": [
  ["NC(Cc1ccc(Cl)cc1)C(=O)O (stereo not drawn)", 1.01],
  ["Cc1ccc(O)c(C(CCN(C(C)C)C(C)C)c2ccccc2)c1 (stereo not drawn)", 0.995],
  ["CN1CCC[C@H]1c1cccnc1", 0.969],
  ["O=C(O)c1cccnc1C(=O)O", 1.01],
  ["O=C1c2cccc(O)c2C(=O)c2c(O)cccc21", 0.781],
  ["O=C(Nc1ccc([N+](=O)[O-])cc1Cl)c1cc(Cl)ccc1O", 0.954],
  ["O=c1c(O)c(-c2ccccc2)oc2cc(O)ccc12", 0.699],
  ["O=c1c(O)c(-c2ccccc2)oc2ccc3occc3c12", 0.764]
]}

Prompt: Can you look up the measured normalized growth of ClC1C(Cl)C(Cl)C(Cl)C(Cl)C1Cl (stereo not drawn) for me?
Completion: 0.933

Prompt: State the recorded normalized growth for this entry: O=C(O)CC[N+](=O)[O-]
Completion: 0.982

Prompt: # normalized growth lookup, item O=C1C=CC(=O)c2c(O)cccc21
Completion: 1.02

Prompt: Reported normalized growth, compound CC(=O)OC[C@@]1(O)C[C@@]23CCC4c5ccoc5CC[C@]4(C)C2CC[C@@H]1C3 (stereo partly drawn) : ____
Completion: 0.931

Prompt: Suppose we examine the compound O=C(O)c1cc(O)c2c(c1)C(=O)c1cc(O)cc(O)c1C2=O ; what normalized growth value has been reported?
Completion: 0.971

* * *

- assay summary: chemical genetic growth profiling, strain panel (AID 1159580)
- reported conditions: S. cerevisiae deletion strains, growth OD, locus YGL248W, strain PDE1, stronger effect = lower value
About 2,000 (36%) of roughly 5,500 compounds were called active. Roughly 18% stayed inconclusive and do not appear here. Some of the results follow.
Decide using normalized growth alone. Strictly below 1: condition met. Equal to or above 1: condition not met.

{"columns": ["query smiles", "classification"],
 "data": [
  ["COc1ccc(-c2c(OC)c3c(OC)c4c(cc3oc2=O)OC(C)(C)C=C4)cc1", "condition not met"],
  ["COc1ccc(NS(=O)(=O)c2ccc(N)cc2)nn1", "condition not met"],
  ["CC(=O)CCCCn1c(=O)c2c(ncn2C)n(C)c1=O", "condition not met"],
  ["O=C1NS(=O)(=O)c2ccccc21", "condition not met"]
]}

Now consider the entry below.
Prompt: Bench note: check whether O=C1C=C(O)c2ccccc2C1=O shows normalized growth below 1
Completion: condition met

* * *

// normalized growth lookup, one value per entry
- assay summary: chemical genetic growth profiling, strain panel (AID 1159580);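 also: tested at 20 µM; growth read once vehicle control cultures reached saturation at 30 °C; 1 = growth at the plate median or of vehicle wells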
- reported conditions: S. cerevisiae deletion strains, growth OD, locus YOR265W, strain rbl2, stronger effect = lower value
The whole screen tested about 5,500 compounds, of which about 2,000 (36%) were called active. Inconclusive results (about 18%) are left out. Some of the results follow.
Enter a number only.

Prompt: I am curious: what normalized growth value has been reported for CC[C@H]1OC(=O)[C@H](C)[C@@H](O[C@H]2C[C@@](C)(OC)[C@@H](O)[C@H](C)O2)[C@H](C)[C@@H](O[C@@H]2O[C@H](C)C[C@H](N(C)C)[C@H]2O)[C@](C)(O)C[C@@H](C)/C(=N/OCOCCOC)[C@H](C)[C@@H](O)[C@]1(C)O ?
Completion: 1.01

Prompt: For CCC[C@@H]1C[C@@H](C(=O)N[C@H]([C@H]2O[C@H](SC)[C@H](O)[C@@H](O)[C@H]2O)[C@H](C)O)N(C)C1 , what is its reported normalized growth?
Completion: 0.983

Prompt: Suppose we examine the molecule CC(C)C1CCC(C(=O)N[C@@H](Cc2ccccc2)C(=O)O)CC1 (stereo partly drawn) ; what normalized growth value has been reported?
Completion: 0.975

* * *

- assay summary: chemical genetic growth profiling, strain panel (AID 1159580);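 also: tested at 20 µM; growth read once vehicle control cultures reached saturation at 30 °C; 1 = growth at the plate median or of vehicle wells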
- reported conditions: S. cerevisiae deletion strains, growth OD, locus YER123W, strain YCK3
About 2,000 (36%) of roughly 5,500 compounds were called active. Not shown: some 18% with an inconclusive outcome. Rule as the data show it: active = normalized growth mostly below about 0.91 (no sharp cut-off); inconclusive = no clear call, values can overlap the other calls; inactive = mostly above about 0.92. The list shows a part of the results.
Pick from active, inactive when you respond.

Recorded results for 3 compounds are shown here.
{"columns": ["compound", "classification"],
 "data": [
  ["CC1SC(c2cccnc2)N(c2ccc(F)cc2F)C1=O (stereo unspecified)", "inactive"],
  ["CC(C)c1cccc(C(C)C)c1OC(=O)NC(=O)c1c(Cl)cccc1Cl", "inactive"],
  ["NNC(=O)c1oc2nc(-c3ccccc3)cc(-c3ccccc3)c2c1N", "inactive"]
]}

Prompt: Could you please tell me the result logged for CCOC(=O)c1cnc(-c2ccccn2)[nH]c1=O in this assay?
Completion: active

Prompt: Outcome logged for O=C(Nc1ccccc1Sc1ccc(C(F)(F)F)cc1[N+](=O)[O-])C(Cl)Cl in this assay:
Completion: inactive

Prompt: Which outcome was entered for the compound O=[N+]([O-])c1ccc(Sc2ccccc2)cc1O in this test?
Completion: inactive

Prompt: In this assay, the call recorded for O=C(OCCNc1ccc([N+](=O)[O-])cn1)c1ccc([N+](=O)[O-])o1 was what?
Completion: inactive

Prompt: Please indicate how the test categorized CC(=O)c1ccc(Sc2ccccc2)c([N+](=O)[O-])c1 .
Completion: inactive

Prompt: Which outcome was entered for the compound O=S(=O)(Nc1c(F)cccc1F)c1ccc(Cl)c(Cl)c1 in this test?
Completion: inactive

Prompt: Returns: the outcome recorded for COc1cc(C2SCCS2)cc(Br)c1OC(=O)NC(=O)c1c(Cl)cccc1Cl in this assay.
Completion: inactive

Prompt: How did this test come out for O=[N+]([O-])c1ccc(NCc2ccc(Cl)c(Cl)c2)nc1 ?
Completion: inactive

* * *

- assay summary: chemical genetic growth profiling, strain panel (AID 1159580);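 also: tested at 20 µM; growth read once vehicle control cultures reached saturation at 30 °C; 1 = growth at the plate median or of vehicle wells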
- reported conditions: S. cerevisiae deletion strains, growth OD, locus YHR200W, strain rpn10
The campaign covered roughly 5,500 compounds. About 2,000 (36%) were called active. Inconclusive results (about 18%) are left out. No stated cut-off is given here; in the data, active means normalized growth mostly below about 0.91 (no sharp cut-off); inconclusive means no clear call, values can overlap the other calls; inactive means mostly above about 0.92. Some of the results follow.
Hi! Could you answer with just one of these? true (1) for active, false (0) for inactive

Illustrative cases are given below, each with its answer.
{"columns": ["compound", "classification"],
 "data": [
  ["CCC[C@@H]1C[C@@H](C(=O)N[C@H]([C@H]2O[C@H](SC)[C@H](O)[C@@H](O)[C@H]2O)[C@H](C)O)N(C)C1", "false (0)"],
  ["O=C(O)CC[N+](=O)[O-]", "false (0)"],
  ["CC(=O)OC1CCC23CC1(C)CCC2C(C)(C)CC3OC(C)=O (stereo not drawn)", "false (0)"],
  ["O=C(Nc1ccc([N+](=O)[O-])cc1Cl)c1cc(Cl)ccc1O", "false (0)"],
  ["C[N+]1(C)CCCC(OC(=O)C(O)(c2ccccc2)c2ccccc2)C1 (stereo not drawn)", "false (0)"]
]}

Prompt: What classification did CN1C(=O)CC[C@H]1c1cccnc1 end up with in this test?
Completion: false (0)

Prompt: So what was the verdict on COc1ccc(-c2c(O)c3c(OC)c4c(cc3oc2=O)OC(C)(C)C=C4)cc1 in this test?
Completion: false (0)

Prompt: Answer briefly: the call reported for CC(=O)OC[C@@]1(O)C[C@@]23CCC4c5ccoc5CC[C@]4(C)C2CC[C@@H]1C3 (stereo partly drawn) in this assay.
Completion: false (0)

Prompt: Hi, do you know how COc1cc(O)c2c(c1)C(=O)c1cc(C)cc(O)c1C2=O came out in this test?
Completion: false (0)

Prompt: Record lookup: outcome of this test for O=C(N[C@@H](CO)[C@H](O)c1ccc([N+](=O)[O-])cc1)C(Cl)Cl ?
Completion: false (0)

Prompt: Status in this test for CNC(=O)Oc1ccccc1OC(C)C ?
Completion: false (0)

Prompt: Hello, I am checking results. What call was entered for Cn1c(=O)[nH]c2nc[nH]c2c1=O ?
Completion: false (0)

Prompt: GET /call?item= CC(=O)Nc1c(I)cc(I)c(C(=O)O)c1I returns the recorded outcome of this test.
Completion: false (0)

Prompt: Can you look up the reported call for C=C(C)C1Cc2c(ccc3c(=O)c4c(oc23)COc2cc(OC)c(OC)cc2-4)O1 (stereo not drawn) for me?
Completion: false (0)

Prompt: Which outcome was entered for the compound CC(=O)OC1CCC2(O)CC1(C)CCC1C2CC1(C)C (stereo not drawn) in this test?
Completion: false (0)

Prompt: Assay result, entry Cn1c(=O)[nH]c2ncn(C)c2c1=O — outcome?
Completion: false (0)

Prompt: For O=C1c2cccc(O)c2C(=O)c2c(O)cccc21 , what call appears in the results of this test?
Completion: true (1)

Prompt: Just curious, what result did COc1cc2cccc(OC)c(=O)c2c(OC)c1OC get here?
Completion: false (0)

Prompt: Lab log entry: CC(C)N1C(=O)c2ccccc2NS1(=O)=O — outcome as called in the assay?
Completion: false (0)

Prompt: Check the results log: what was the call for CC(C)C1CCC(C(=O)N[C@@H](Cc2ccccc2)C(=O)O)CC1 (stereo partly drawn) ?
Completion: false (0)

Prompt: Which result was noted for this compound in the test: COC(=O)c1cc(OC)c(=O)c2c(OC)c(OC)ccc2c1
Completion: false (0)
